Recorded yeast fitness (ln) by entry
B1: tRNA (parent)
chain: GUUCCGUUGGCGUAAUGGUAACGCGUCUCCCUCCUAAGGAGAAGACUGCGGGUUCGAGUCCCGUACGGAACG

Variants of: B1
Test: yeast fitness, log relative to wild type (ln ratio); higher = fitter; tRNA-Arg(CCU), competitive growth, 37 C, 1 M NaCl
// keep it numeric: no unit symbol after the value

The following variants have reported results that may help.
Construct sequence: GUUCCUUUGGCGUAAUGGUAACGCGUCUCCCUCCUAAGGAGACGAUUGCGGGUUCGAGUCCCGUAAGGGGCG [G6U A43C C46U C66A A69G A70G]
yeast fitness (ln): -0.147

Construct sequence: AGUCCAUUGGCGUAAUGGUAACGCGUUUCCCUCCUAAGGAGAAGACUGCGGGUUCGAGUCCCGUACGGAUUG [G1A U2G G6A C27U A70U C71U]
yeast fitness (ln): -0.264

Construct sequence: GGUCCAUUGGCGUAAUGGUAACGCGUCUCCCUCCUAAGGAGACGACUGCGGGUUCGAGUCCCGUACGGGAUG [U2G G6A A43C A69G C71U]
yeast fitness (ln): -0.364

Construct sequence: GGUCCUUUGGCGUAAUGGUAACGCGUCUCCCUCCUAAGGAGACGAUUGCGGGUUCGAGUCCCGUAAGGGGUG [U2G G6U A43C C46U C66A A69G A70G C71U]
yeast fitness (ln): -0.228

Construct sequence: AUUCCUUUGGCGUAAUGGUAACGCGUCUCCCUCCUAAGGAGACGAUUGCGGGUUCGAGUCCCGUAUGGGGUG [G1A G6U A43C C46U C66U A69G A70G C71U]
yeast fitness (ln): -0.333

Lab note: measured yeast fitness (ln) of GCUCCAUUGGCGUAAUGGUAACGCGUUUCCCUCCUAAGGAGACGAUUGCGGGUUCGAGUCCCGUAUGGGAUG [U2C G6A C27U A43C C46U C66U A69G C71U] was -0.281

yeast fitness (ln) for GUUCCAUUGGCGUAAUGGUAACGCGUCUCCCUCCUAAGGAGAAGAUUGCGGGUUCGAGUCCCGUAUGGGUUG [G6A C46U C66U A69G A70U C71U] is -0.35

The reported yeast fitness (ln) of the variant AUUCCGUUGGCGUAAUGGUAACGCGUCUCCCUCCUAAGGAGAAGAUUGCGGGUUCGAGUCCCGUAUGGGACG [G1A C46U C66U A69G] was -0.202
